Biological target: 5-hydroxytryptamine receptor 2C (Homo sapiens, UniProt P28335)
Sequence (P28335 whole entry): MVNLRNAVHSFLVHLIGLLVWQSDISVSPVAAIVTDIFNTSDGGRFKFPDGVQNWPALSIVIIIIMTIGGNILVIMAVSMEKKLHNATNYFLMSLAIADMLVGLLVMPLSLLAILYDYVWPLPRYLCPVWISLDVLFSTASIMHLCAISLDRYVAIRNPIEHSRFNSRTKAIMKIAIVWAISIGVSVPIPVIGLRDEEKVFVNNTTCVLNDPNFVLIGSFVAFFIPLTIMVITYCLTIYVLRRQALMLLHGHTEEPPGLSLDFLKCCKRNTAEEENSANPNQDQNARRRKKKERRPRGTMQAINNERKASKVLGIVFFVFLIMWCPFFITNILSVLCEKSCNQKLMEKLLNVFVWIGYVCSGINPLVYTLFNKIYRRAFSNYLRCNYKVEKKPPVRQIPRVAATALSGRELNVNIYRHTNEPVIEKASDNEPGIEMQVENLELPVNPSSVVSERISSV

SMILES_STRUCTURE | Ki
C[C@H]1c2c([nH]c3ccc(C(F)(F)F)cc23)C[C@H]2CCN(CCC3(C(=O)O)CCCCC3)C[C@@H]21 | 1.12 µM
